Molecular target: OR12D2 (Homo sapiens)
Conditions: stereoisomer not certain
experimental_readout: odorant receptor agonist call

compound	study_target	experimental_readout	result
CCCCCC(S)C(C)CO (configuration not stated)	OR12D2 (Homo sapiens)	odorant receptor agonist call	inactive
CCCCC(S)C(C)CO (configuration not stated)	OR12D2 (Homo sapiens)	odorant receptor agonist call	inactive
CCCCCCC=CCCC=O	OR12D2 (Homo sapiens)	odorant receptor agonist call	inactive
CCCC(S)CCOC(C)=O (configuration not stated)	OR12D2 (Homo sapiens)	odorant receptor agonist call	inactive
CCC1OC(C)=C(O)C1=O (configuration not stated)	OR12D2 (Homo sapiens)	odorant receptor agonist call	inactive

// query Report odorant receptor agonist call for CC1=C(O)C(=O)OC1C (configuration not stated) please.
// result inactive

// query Report odorant receptor agonist call for CC1=NC(C)C(C)S1 (configuration not stated) please.
// result inactive

* * *

Target: UniProt Q8VGP6
Sequence (whole entry): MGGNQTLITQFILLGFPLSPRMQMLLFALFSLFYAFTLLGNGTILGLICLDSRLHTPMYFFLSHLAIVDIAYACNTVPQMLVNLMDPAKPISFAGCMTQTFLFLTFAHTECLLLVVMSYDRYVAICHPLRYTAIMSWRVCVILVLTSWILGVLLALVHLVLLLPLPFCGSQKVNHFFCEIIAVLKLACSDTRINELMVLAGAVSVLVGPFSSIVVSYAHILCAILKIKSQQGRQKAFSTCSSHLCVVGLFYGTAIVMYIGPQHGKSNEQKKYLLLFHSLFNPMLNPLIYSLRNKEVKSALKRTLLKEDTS
Details: stereoisomer not certain
Tick one outcome: active, inactive

// query Recorded test outcome, item `CCCCCOC(=O)CCCCC`
// result inactive

// query Recorded test outcome, item `CCCCC(C)=O`
// result inactive

// query Recorded test outcome, item CCC(C(=O)O)c1ccccc1 (stereo not drawn)
// result inactive

// query Recorded test outcome, item `CCCCCCCCCS`
// result active

// query Recorded test outcome, item `CCC(=O)C(=O)CC`
// result inactive

// query Recorded test outcome, item `CCCCCCCCS`
// result inactive

// query Recorded test outcome, item `CC(=O)OCc1ccccc1`
// result active

// query Recorded test outcome, item `O=c1ccc2ccccc2o1`
// result inactive

// query Recorded test outcome, item `CCCC(=O)C(C)=O`
// result inactive

// query Recorded test outcome, item CC(C)=CCCC(C)CCO (stereo not drawn)
// result inactive

// query Recorded test outcome, item `O=C1CCOc2ccccc21`
// result inactive

// query Recorded test outcome, item `CCCCCCO`
// result inactive

// query Recorded test outcome, item `CC(=O)OCC=C(C)C`
// result inactive

// query Recorded test outcome, item `O=C1Cc2ccccc2O1`
// result inactive

// query Recorded test outcome, item `CCCCCCCO`
// result active

// query Recorded test outcome, item `CCCCCCCCCCO`
// result active

// query Recorded test outcome, item `CCCCC(=O)CC`
// result inactive

// query Recorded test outcome, item `C=CCOC(=O)CCCCCC`
// result inactive

* * *

Target: UniProt Q8VGC6
Sequence (Q8VGC6 as listed by the source): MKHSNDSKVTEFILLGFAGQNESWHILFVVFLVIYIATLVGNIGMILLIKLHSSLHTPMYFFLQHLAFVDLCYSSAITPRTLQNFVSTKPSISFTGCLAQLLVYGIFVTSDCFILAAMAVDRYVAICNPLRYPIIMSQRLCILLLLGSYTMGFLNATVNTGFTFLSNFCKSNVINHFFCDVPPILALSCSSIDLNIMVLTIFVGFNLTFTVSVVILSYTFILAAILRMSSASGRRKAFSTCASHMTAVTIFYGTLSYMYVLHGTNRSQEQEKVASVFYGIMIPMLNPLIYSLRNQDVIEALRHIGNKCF
Details: stereoisomer not certain
Tick one outcome: active, inactive

// query Recorded test outcome, item `CCC(=O)O`
// result inactive

// query Recorded test outcome, item `Cc1nccnc1C`
// result inactive

// query Recorded test outcome, item `CCCCCCCCOC=O`
// result inactive

// query Recorded test outcome, item `CCCCCCCCC=CC=O`
// result inactive

// query Recorded test outcome, item `OCC=Cc1ccccc1`
// result inactive

// query Recorded test outcome, item `C=C(CC)CCCC(C)(C)O`
// result inactive

// query Recorded test outcome, item `CC(=O)OCC=C(C)C`
// result active

// query Recorded test outcome, item `O=C([O-])CCCCCCC(=O)[O-].[H+].[H+]`
// result inactive

// query Recorded test outcome, item `CCCCOC(=O)CCC`
// result inactive

// query Recorded test outcome, item `CCCCCOC(=O)CCC`
// result inactive

// query Recorded test outcome, item `O=C([O-])CCCCCCCC(=O)[O-].[H+].[H+]`
// result inactive

// query Recorded test outcome, item `CCC=CCCCCC=O`
// result inactive

// query Recorded test outcome, item `COc1ccccc1`
// result inactive

// query Recorded test outcome, item `CCCCCCC=CC=O`
// result inactive

// query Recorded test outcome, item `CCCO`
// result inactive

// query Recorded test outcome, item `O=C(OCc1ccccc1)c1ccccc1O`
// result inactive

// query Recorded test outcome, item `COC(OC)c1ccccc1`
// result inactive

* * *

Target: UniProt Q8VGW5
Sequence (Q8VGW5 as listed by the source): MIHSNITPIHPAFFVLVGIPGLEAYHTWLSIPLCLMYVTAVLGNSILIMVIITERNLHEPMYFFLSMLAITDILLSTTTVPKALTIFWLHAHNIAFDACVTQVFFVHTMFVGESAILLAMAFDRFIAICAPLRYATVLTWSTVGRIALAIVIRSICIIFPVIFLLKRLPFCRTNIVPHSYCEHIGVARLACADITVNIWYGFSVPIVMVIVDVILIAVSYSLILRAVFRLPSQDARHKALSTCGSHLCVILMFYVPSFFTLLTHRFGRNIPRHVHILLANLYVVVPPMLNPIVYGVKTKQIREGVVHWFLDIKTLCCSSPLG
Details: stereoisomer not certain
Tick one outcome: active, inactive

// query Recorded test outcome, item `CCCC(C)=O`
// result inactive

// query Recorded test outcome, item `CCCCC=O`
// result active

// query Recorded test outcome, item `CCCCCCO`
// result inactive

// query Recorded test outcome, item `CCCCOC(=O)CCC`
// result inactive

// query Recorded test outcome, item `O=C([O-])CCCCCCCC(=O)[O-].[H+].[H+]`
// result inactive

// query Recorded test outcome, item `CCCCCCCCO`
// result inactive

// query Recorded test outcome, item `CCCCCCC(=O)[O-].[H+]`
// result inactive

* * *

Molecular target: UniProt Q8VGX5
Sequence (Q8VGX5 as listed by the source): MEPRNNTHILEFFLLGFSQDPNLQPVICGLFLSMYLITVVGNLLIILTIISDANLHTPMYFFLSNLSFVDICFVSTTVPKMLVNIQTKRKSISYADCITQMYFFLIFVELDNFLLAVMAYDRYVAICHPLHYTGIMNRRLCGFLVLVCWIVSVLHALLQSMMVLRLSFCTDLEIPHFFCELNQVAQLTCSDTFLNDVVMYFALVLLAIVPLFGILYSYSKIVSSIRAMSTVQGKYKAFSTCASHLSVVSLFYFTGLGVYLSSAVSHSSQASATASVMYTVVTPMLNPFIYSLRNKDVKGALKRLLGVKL
Conditions: stereoisomer not certain
Tick one outcome: active, inactive

// query Recorded test outcome, item `CCCCCC=O`
// result inactive

// query Recorded test outcome, item `CCCCCCCCO`
// result inactive

// query Recorded test outcome, item `CCOC(=O)C(C)C`
// result inactive

// query Recorded test outcome, item CC1CCC(C(C)C)C(=O)C1 (stereo not drawn)
// result inactive

// query Recorded test outcome, item `CC=C(C)C=O`
// result inactive

// query Recorded test outcome, item `CCc1nccnc1CC`
// result inactive

// query Recorded test outcome, item `CCCCC(=O)CC`
// result inactive

// query Recorded test outcome, item `Cc1ccc(C(C)C)c(O)c1`
// result inactive

// query Recorded test outcome, item `CC(C)=CCCC(C)=CCOC(=O)C(C)C`
// result active

// query Recorded test outcome, item `OCCCCCCCCCO`
// result inactive

// query Recorded test outcome, item `CSSCc1ccco1`
// result inactive

// query Recorded test outcome, item `CCCCC=O`
// result inactive

// query Recorded test outcome, item `CCCCCCCCOC=O`
// result inactive

* * *

Target: Or1m1 (Mus musculus) (UniProt Q8VFM9)
Sequence (Q8VFM9 whole entry): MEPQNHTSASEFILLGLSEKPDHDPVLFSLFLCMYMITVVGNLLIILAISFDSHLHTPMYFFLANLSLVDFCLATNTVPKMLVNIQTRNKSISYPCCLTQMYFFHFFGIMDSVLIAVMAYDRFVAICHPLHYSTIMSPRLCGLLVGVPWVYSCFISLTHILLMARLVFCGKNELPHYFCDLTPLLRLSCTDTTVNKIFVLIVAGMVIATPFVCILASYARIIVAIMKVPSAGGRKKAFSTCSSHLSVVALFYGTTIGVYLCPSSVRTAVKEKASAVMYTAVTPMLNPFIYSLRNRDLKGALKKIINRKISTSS
Details: stereoisomer not certain
Tick one outcome: active, inactive

// query Recorded test outcome, item `CCCO`
// result inactive

// query Recorded test outcome, item `CCCCCCCCCCOC(C)=O`
// result inactive

// query Recorded test outcome, item `COc1nccnc1C(C)C`
// result inactive

// query Recorded test outcome, item CC(CC=O)CCCC(C)(C)O (configuration not stated)
// result inactive

// query Recorded test outcome, item `C=CC(C)=CCC=C(C)CCC=C(C)C`
// result inactive

// query Recorded test outcome, item `CCOC(=O)CC(C)C`
// result inactive

// query Recorded test outcome, item `CCCCC(=O)CC`
// result inactive

// query Recorded test outcome, item `O=C([O-])CCCCCCC(=O)[O-].[H+].[H+]`
// result inactive

// query Recorded test outcome, item `Cc1ccc(OC(=O)C(C)C)cc1`
// result inactive

// query Recorded test outcome, item `COC(OC)c1ccccc1`
// result inactive

// query Recorded test outcome, item `COc1ccccc1`
// result inactive

// query Recorded test outcome, item `COc1nccnc1C`
// result inactive

// query Recorded test outcome, item `COc1cnccn1`
// result inactive

// query Recorded test outcome, item `CCCCCC(=O)CC`
// result inactive

// query Recorded test outcome, item C=C(C)C1CCC2(C)OC2C1 (configuration not stated)
// result inactive

// query Recorded test outcome, item `CCCCCCCCC=CC=O`
// result inactive

// query Recorded test outcome, item `O=C(O)CCCCCCCCC(=O)O`
// result inactive

// query Recorded test outcome, item `CCCCCCC(=O)OCCCC`
// result inactive

// query Recorded test outcome, item CC1CC=CCCCCCCCCCC(=O)C1 (configuration not stated)
// result inactive

// query Recorded test outcome, item `CCc1nccnc1CC`
// result inactive

// query Recorded test outcome, item `CSSCc1ccco1`
// result inactive

// query Recorded test outcome, item `CC(=O)C=CC1=C(C)CCCC1(C)C`
// result inactive

// query Recorded test outcome, item `CSSSC`
// result inactive

// query Recorded test outcome, item CCCC(C)C(=O)OCC (configuration not stated)
// result inactive

// query Recorded test outcome, item CC(C)=CCCC(C)CCO (configuration not stated)
// result inactive

// query Recorded test outcome, item CC(C)=C1CCC(C)CC1=O (configuration not stated)
// result inactive

// query Recorded test outcome, item C=C1C2CCC(C2)C1(C)C (configuration not stated)
// result inactive

// query Recorded test outcome, item `CCCCCCC(C=O)=Cc1ccccc1`
// result inactive

// query Recorded test outcome, item `CC(=O)OCCc1ccccc1`
// result inactive

// query Recorded test outcome, item `CCCCCCCCCCCO`
// result inactive

// query Recorded test outcome, item `CC(C)CCN`
// result inactive

// query Recorded test outcome, item `CCCCC(=O)O`
// result inactive

// query Recorded test outcome, item `C1CCOC1`
// result inactive

// query Recorded test outcome, item `CC(=O)OCc1ccccc1`
// result inactive

// query Recorded test outcome, item `Cc1ccc2c(c1)OCC(=O)CO2`
// result inactive

// query Recorded test outcome, item `CCCCCC=CCCC=O`
// result inactive

// query Recorded test outcome, item `c1ccc2ncccc2c1`
// result inactive

// query Recorded test outcome, item `CC1(C)CC(=O)CC(=O)C1`
// result inactive

// query Recorded test outcome, item `CCC=CCCCCC=O`
// result inactive

// query Recorded test outcome, item CCC(C)O (configuration not stated)
// result inactive

// query Recorded test outcome, item `Cc1ccc(C(C)C)c(O)c1`
// result inactive

// query Recorded test outcome, item `C=C(CC)CCCC(C)(C)O`
// result inactive

// query Recorded test outcome, item `CCCCCCCCCCO`
// result inactive

// query Recorded test outcome, item `OCC=Cc1ccccc1`
// result inactive

// query Recorded test outcome, item `Cc1occc1SSc1ccoc1C`
// result inactive

// query Recorded test outcome, item `CCc1ncc(C)nc1CC`
// result inactive

// query Recorded test outcome, item `CC(=O)OCc1ccc2c(c1)OCO2`
// result inactive

// query Recorded test outcome, item `CCCCCCO`
// result inactive

// query Recorded test outcome, item `CCCCCC(=Cc1ccccc1)C(OC)OC`
// result inactive

// query Recorded test outcome, item `O=C1CCOc2ccccc21`
// result inactive

// query Recorded test outcome, item `CCCC(=O)C(C)=O`
// result inactive

// query Recorded test outcome, item `CCCCCOC(=O)CCCCC`
// result inactive

// query Recorded test outcome, item `C=CCOC(=O)CCCCCC`
// result inactive

// query Recorded test outcome, item `CCCCCC1=C(C)CCC1=O`
// result inactive

// query Recorded test outcome, item CCCCCCC(C)O (configuration not stated)
// result inactive

// query Recorded test outcome, item `CCCCCCCCS`
// result inactive

// query Recorded test outcome, item `O=C(OCc1ccccc1)c1ccccc1O`
// result inactive

// query Recorded test outcome, item CC(=O)OC1(C)CCC23CC1C(C)(C)C2CCC3C (configuration not stated)
// result active

// query Recorded test outcome, item `C=CC(=C)CCC=C(C)C`
// result inactive

// query Recorded test outcome, item `CC(C)=CCCC(C)=CCOC(=O)C(C)C`
// result inactive

// query Recorded test outcome, item `O=C1Cc2ccccc2O1`
// result inactive

// query Recorded test outcome, item `CCCCCCCC(C)=O`
// result inactive

// query Recorded test outcome, item `CCCC=O`
// result inactive

// query Recorded test outcome, item `O=C([O-])CCCCCCCC(=O)[O-].[H+].[H+]`
// result inactive

// query Recorded test outcome, item `C=CC(=O)CCCCC`
// result inactive

// query Recorded test outcome, item `CCOC(=O)C(C)C`
// result inactive

// query Recorded test outcome, item `CCCCCCCO`
// result inactive

// query Recorded test outcome, item `CC(=O)Oc1ccccc1`
// result inactive

// query Recorded test outcome, item `CCc1ccccc1O`
// result inactive

// query Recorded test outcome, item `CCCCCCC=CC=O`
// result inactive

// query Recorded test outcome, item `CCCCCOC(=O)CC`
// result inactive

// query Recorded test outcome, item `CCCCCCCCOC=O`
// result inactive
